pIC50 values for Dipeptidyl peptidase 4 (Homo sapiens, UniProt P27487) compiled from several publications are listed below.
pIC50: −log10 of the molar value.
readout-type: pIC50

(1) COCOc1ccccc1[C@H]1C=C(CC/C=C(\C)CCC=C(C)C)C(=O)O1
(2) C[C@@]1(NCC(=O)N2CCC[C@H]2C#N)C[C@H]2C[C@@H](O)C[C@H]2C1
(3) CCCCNC(=O)c1nc(C(F)(F)F)n2c1CN(C(=O)C[C@H](N)Cc1cc(F)c(F)cc1F)CC2
(4) Cc1cc(N2CCC[C@@H](NCc3ccccc3C#N)C2)c2c(n1)n(C)c(=O)n2Cc1ccccc1C#N
Ranking request: pIC50, max to min, items above. Provide the ranking by listing each label in its place in the requested order.
2, 3, 4, 1
(2: 7.56, 3: 7.20, 4: 6.37, 1: 4.84)
